PROTOCOL: Chemical and isotopic stability as solutions in DMSO/phosphate buffered saline over 48 hours
MEASUREMENT PARAMETERS: DMSO/PBS solution, 37° C., 0 h
RECORDED ENDPOINT: HPLC Area Percentage

Examples with their reported HPLC Area Percentage follow.
SMILES INPUT | HPLC Area Percentage
[2H]C([2H])([2H])C(CCCCCCCCCCCCC(CC(=O)O)(C([2H])([2H])[2H])C([2H])([2H])[2H])(CC(=O)O)C([2H])([2H])[2H] | 98.4%
[2H]C([2H])(C(=O)O)C(C)(C)CCCCCCCCCCC(C)(C)C([2H])([2H])C(=O)O | 94.9%

Now look at this one.
**Query** For the compound [2H]C([2H])([2H])C(CCCCCCCCCCCCCCC(C(=O)O)(C([2H])([2H])[2H])C([2H])([2H])[2H])(C(=O)O)C([2H])([2H])[2H] , what HPLC Area Percentage is on record?
**Result** 95.1%

* * *

PROTOCOL: Chemical and isotopic stability as solutions in DMSO/phosphate buffered saline over 48 hours
MEASUREMENT PARAMETERS: DMSO/PBS solution, 37° C., 2 h
Measured GC/MS IE (isotopic enrichment) by item
Number in %, nothing else.

Examples with their reported GC/MS IE (isotopic enrichment) follow.
SMILES INPUT | GC/MS IE (isotopic enrichment) (%)
[2H]C([2H])([2H])C(CCCCCCCCCCCCCCC(C(=O)O)(C([2H])([2H])[2H])C([2H])([2H])[2H])(C(=O)O)C([2H])([2H])[2H] | 99.9
[2H]C([2H])(C(=O)O)C(C)(C)CCCCCCCCCCCCC(C)(C)C([2H])([2H])C(=O)O | 95.9
[2H]C([2H])([2H])C(CCCCCCCCCCC(C([2H])([2H])[2H])(C([2H])([2H])[2H])C([2H])([2H])C(=O)O)(C([2H])([2H])[2H])C([2H])([2H])C(=O)O | 98.2

Now look at this one.
**Query** For the molecule [2H]C([2H])([2H])C(CCCCCCCCCCCCC(CC(=O)O)(C([2H])([2H])[2H])C([2H])([2H])[2H])(CC(=O)O)C([2H])([2H])[2H] , what GC/MS IE (isotopic enrichment) is on record?
**Result** 99.0

* * *

Measured HPLC Area Percentage by item
PROTOCOL: Chemical and isotopic stability as solutions in DMSO/phosphate buffered saline over 48 hours
MEASUREMENT PARAMETERS: DMSO/PBS solution, 37° C., 48 h
Give me the value, and tack the unit on after it.

Examples with their reported HPLC Area Percentage follow.
SMILES INPUT | HPLC Area Percentage
[2H]C([2H])(C(=O)O)C(C)(C)CCCCCCCCCCC(C)(C)C([2H])([2H])C(=O)O | 96.0%
[2H]C([2H])([2H])C(CCCCCCCCCCCCC(C(=O)O)(C([2H])([2H])[2H])C([2H])([2H])[2H])(C(=O)O)C([2H])([2H])[2H] | 96.7%
[2H]C([2H])([2H])C(CCCCCCCCCCC(CC(=O)O)(C([2H])([2H])[2H])C([2H])([2H])[2H])(CC(=O)O)C([2H])([2H])[2H] | 98.5%

**Query** For the molecule [2H]C([2H])([2H])C(CCCCCCCCCCCCC(CC(=O)O)(C([2H])([2H])[2H])C([2H])([2H])[2H])(CC(=O)O)C([2H])([2H])[2H] , what HPLC Area Percentage is on record?
**Result** 98.7%

**Query** For the molecule [2H]C([2H])([2H])C(CCCCCCCCCCCCC(C([2H])([2H])[2H])(C([2H])([2H])[2H])C([2H])([2H])C(=O)O)(C([2H])([2H])[2H])C([2H])([2H])C(=O)O , what HPLC Area Percentage is on record?
**Result** 97.5%

* * *

PROTOCOL: Chemical and isotopic stability as solutions in DMSO/phosphate buffered saline over 48 hours
MEASUREMENT PARAMETERS: DMSO/PBS solution, 37° C., 4 h
Measured GC/MS IE (isotopic enrichment) by item
Number in %, nothing else.

Examples with their reported GC/MS IE (isotopic enrichment) follow.
MOLECULE | READOUT UNIT | QUANTITATIVE RESULT
[2H]C([2H])([2H])C(CCCCCCCCCCCCC(CC(=O)O)(C([2H])([2H])[2H])C([2H])([2H])[2H])(CC(=O)O)C([2H])([2H])[2H] [Compound 6] | % | 99.1
[2H]C([2H])([2H])C(CCCCCCCCCCCCCCC(C(=O)O)(C([2H])([2H])[2H])C([2H])([2H])[2H])(C(=O)O)C([2H])([2H])[2H] [Compound 8] | % | 99.9
[2H]C([2H])(C(=O)O)C(C)(C)CCCCCCCCCCC(C)(C)C([2H])([2H])C(=O)O [Compound 2] | % | 98.0

**Query** For the molecule [2H]C([2H])([2H])C(CCCCCCCCCCCCC(C(=O)O)(C([2H])([2H])[2H])C([2H])([2H])[2H])(C(=O)O)C([2H])([2H])[2H] [Compound 7] , what GC/MS IE (isotopic enrichment) is on record?
**Result** 99.9

**Query** For the molecule [2H]C([2H])([2H])C(CCCCCCCCCCCCC(C([2H])([2H])[2H])(C([2H])([2H])[2H])C([2H])([2H])C(=O)O)(C([2H])([2H])[2H])C([2H])([2H])C(=O)O [Compound 4] , what GC/MS IE (isotopic enrichment) is on record?
**Result** 98.4

**Query** For the molecule [2H]C([2H])([2H])C(CCCCCCCCCCC(CC(=O)O)(C([2H])([2H])[2H])C([2H])([2H])[2H])(CC(=O)O)C([2H])([2H])[2H] [Compound 3] , what GC/MS IE (isotopic enrichment) is on record?
**Result** 99.9

**Query** For the molecule [2H]C([2H])(C(=O)O)C(C)(C)CCCCCCCCCCCCC(C)(C)C([2H])([2H])C(=O)O [Compound 5] , what GC/MS IE (isotopic enrichment) is on record?
**Result** 96.0

**Query** For the molecule [2H]C([2H])([2H])C(CCCCCCCCCCC(C([2H])([2H])[2H])(C([2H])([2H])[2H])C([2H])([2H])C(=O)O)(C([2H])([2H])[2H])C([2H])([2H])C(=O)O [Compound 1] , what GC/MS IE (isotopic enrichment) is on record?
**Result** 98.2

* * *

PROTOCOL: Chemical and isotopic stability as solutions in DMSO/phosphate buffered saline over 48 hours
MEASUREMENT PARAMETERS: DMSO/PBS solution, 37° C., throughout the time period of the study
RECORDED ENDPOINT: disenrichment of the product (isotopic stability)

COMPOUND | RESULT
[2H]C([2H])([2H])C(CCCCCCCCCCCCCCC(C(=O)O)(C([2H])([2H])[2H])C([2H])([2H])[2H])(C(=O)O)C([2H])([2H])[2H] [Compound 8] | No disenrichment
[2H]C([2H])([2H])C(CCCCCCCCCCCCC(CC(=O)O)(C([2H])([2H])[2H])C([2H])([2H])[2H])(CC(=O)O)C([2H])([2H])[2H] [Compound 6] | No disenrichment
[2H]C([2H])([2H])C(CCCCCCCCCCC(CC(=O)O)(C([2H])([2H])[2H])C([2H])([2H])[2H])(CC(=O)O)C([2H])([2H])[2H] [Compound 3] | No disenrichment

* * *

Measured GC/MS IE (isotopic enrichment) by item
PROTOCOL: Chemical and isotopic stability as solutions in DMSO/phosphate buffered saline over 48 hours
MEASUREMENT PARAMETERS: DMSO/PBS solution, 37° C., 48 h
Number in %, nothing else.

Examples with their reported GC/MS IE (isotopic enrichment) follow.
SMILES INPUT | READOUT UNIT | GC/MS IE (isotopic enrichment)
[2H]C([2H])(C(=O)O)C(C)(C)CCCCCCCCCCCCC(C)(C)C([2H])([2H])C(=O)O | % | 95.5
[2H]C([2H])([2H])C(CCCCCCCCCCC(C([2H])([2H])[2H])(C([2H])([2H])[2H])C([2H])([2H])C(=O)O)(C([2H])([2H])[2H])C([2H])([2H])C(=O)O | % | 98.3

**Query** For the compound [2H]C([2H])([2H])C(CCCCCCCCCCCCC(C(=O)O)(C([2H])([2H])[2H])C([2H])([2H])[2H])(C(=O)O)C([2H])([2H])[2H] , what GC/MS IE (isotopic enrichment) is on record?
**Result** 99.9
